For each record, write down the corresponding chromatographic logP.
Experiment: logP determination by HPLC (EEC Directive 79/831 Annex V. A8)
Type: physicochemical
Settings: gradient method, acetonitrile/0.1% aqueous phosphoric acid

Input: // query chromatographic logP value for entry `CC(C)Cc1nc(-n2cncn2)nc(Cl)c1-c1ccc(F)cc1Cl`
Output: 3.79

Input: Moving on to CC(C)Cc1nc([S+](C)[O-])nc(Cl)c1-c1ccc(F)cc1Cl (stereo not shown)
Output: 3.27

Input: Moving on to `CC(C)Cc1nc(S(C)(=O)=O)nc(Cl)c1-c1ccc(F)cc1Cl`
Output: 3.82

Input: Moving on to `CSc1nc(Cl)c(-c2ccc(F)cc2Cl)c(CC(C)C)n1`
Output: 5.67
